# test-details: inhibitors of hydroxyurea-induced Chk1 phosphorylation, primary screen, imaging, HeLa, phospho-Chk1 antibody, percent positive cells (AID 1186)
# test-context: hydroxyurea-induced phospho-Chk1 immunofluorescence imaging, higher = more signal
The entries below come with measured z-score values attached.

>  <molecule>
CC(=O)n1cc(C(O)C2C=CC3C(=O)N(c4ccccc4)C(=O)C3N2Nc2ccccc2)c2ccccc21 (centres undefined)

>  <z-score>
0.863

$$$$
>  <molecule>
CN(C)CCCCNC(=O)[C@H]1C[C@H]2C(=O)N3CCC[C@H]3C(=O)N2[C@H]1c1ccc(O)cc1

>  <z-score>
0.331

$$$$
>  <molecule>
COCCCNC(=O)[C@@]1(Sc2ccc(C)cc2)CC(=O)N(C2Cc3ccccc3C2)[C@@H]1c1ccc(CO)cc1I

>  <z-score>
0.542

$$$$
>  <molecule>
COc1cc2c(cc1OC)CN(C(=O)[C@H]1[C@@H]3C(=O)O[C@@H](c4ccccc4)[C@@H](c4ccccc4)N3[C@@H](c3ccc(OCCO)cc3)[C@]13C(=O)Nc1ccc(C#CC4(O)CCCCCC4)cc13)CC2

>  <z-score>
-0.647

$$$$
>  <molecule>
COc1cc2c(cc1OC)CN(C(=O)[C@H]1[C@@H]3C(=O)O[C@@H](c4ccccc4)[C@@H](c4ccccc4)N3[C@@H](c3ccc(OCCO)cc3)[C@]13C(=O)Nc1ccc(C#CCCO)cc13)CC2

>  <z-score>
0.0312

$$$$
>  <molecule>
CC(C)C[C@@H]1NC(=O)[C@H]2C[C@@H](C(=O)NCCCCCC[N+](C)(C)C)[C@@H](c3cccc(OCCO)c3)N2C1=O

>  <z-score>
-0.481

$$$$
>  <molecule>
C=C(COC)/C(=C/C[C@@H](OC(=O)c1ccncc1)c1cccc(OCCO)c1)c1cnc2ccccc2c1

>  <z-score>
0.594

$$$$
>  <molecule>
Cc1ccc(F)cc1S(=O)(=O)N[C@@H]1CCN(Cc2ccc(Oc3ccccc3)cc2)C1

>  <z-score>
0.659

$$$$
>  <molecule>
COc1ccc(C#Cc2ccc3c(c2)[C@]2(C(=O)N3)[C@H](C(=O)N3CCc4cc(OC)c(OC)cc4C3)[C@H]3C(=O)O[C@H](c4ccccc4)[C@H](c4ccccc4)N3[C@@H]2c2ccc(O)cc2)cc1

>  <z-score>
-0.24

$$$$
>  <molecule>
CC(C)CNC(=O)[C@@]1(c2ccc([N+](=O)[O-])cc2)CC(=O)N(C2CCCCC2)[C@@H]1c1ccc(CO)cc1I

>  <z-score>
0.093

$$$$
>  <molecule>
COc1ccc(C(O)C2C=CC3C(=O)N(Cc4ccccc4)C(=O)C3N2n2cnnc2)c2ccccc12 (centres undefined)

>  <z-score>
-0.525

$$$$
>  <molecule>
C=CC[C@@]1(C(=O)N2CCCCC2)N=C(c2ccc(OCCCO)cc2)O[C@@H]1c1ccccc1

>  <z-score>
-0.377

$$$$
>  <molecule>
C=CCN1Cc2ccccc2C[C@@]2(N=C(c3ccc(OCCCO)cc3)O[C@H]2c2ccccc2)C1=O

>  <z-score>
-0.468

$$$$
>  <molecule>
O=C1c2ccccc2[C@](Cc2ccccc2I)(C(=O)NCc2ccccc2)[C@H](c2ccc(CO)cc2)N1C1CCCCC1

>  <z-score>
-0.353

$$$$
>  <molecule>
C[C@H]1C2=C3C(CC[C@H]4C(OCc5ccc(F)cc5C(F)(F)F)OC[C@](C)([C@@H]34)N(C(=O)OC(C)(C)C)C2)C(CO)C1CO (some centres undefined)

>  <z-score>
0.491

$$$$
>  <molecule>
O=C1C[C@]2(c3ccc([N+](=O)[O-])cc3)C(=O)N(Cc3ccccc3)c3cc(CO)ccc3[C@H]2N1CC12CC3CC(CC(C3)C1)C2

>  <z-score>
0.0585

$$$$
>  <molecule>
COc1cc2c(cc1O)C(C)N(Cc1cc3c(cc1Br)OCO3)CC2 (centres undefined)

>  <z-score>
-0.765

$$$$
>  <molecule>
CN(C)CCCNC(=O)[C@@]1(c2ccc([N+](=O)[O-])cc2)CC(=O)N(CC23CC4CC(CC(C4)C2)C3)[C@@H]1c1ccc(CO)cc1

>  <z-score>
-0.451

$$$$
>  <molecule>
NC(=O)NCC#Cc1ccc2c(c1)[C@]1(C(=O)N2)[C@H](c2ccc(O)cc2)N2[C@H](c3ccccc3)[C@H](c3ccccc3)OC(=O)[C@H]2[C@@H]1C(=O)Nc1nc2ccccc2s1

>  <z-score>
-0.275

$$$$
>  <molecule>
CC(C)N1CC=CC23O[C@@H]4C=CCOC(=O)[C@@H]4[C@H]2C(=O)N(C(C)CO)[C@@H]3C1=O (some centres undefined)

>  <z-score>
0.113

$$$$
>  <molecule>
CN(C)CCCNC(=O)[C@@]1(C)c2ccccc2C(=O)N(Cc2cc(C(F)(F)F)cc(C(F)(F)F)c2)[C@H]1c1ccc(CO)cc1

>  <z-score>
-0.0172

$$$$
>  <molecule>
CCCC[C@@H]1C[C@H]1[C@@H](NC(=O)c1ccccc1)c1ccc(Cl)cc1

>  <z-score>
0.413

$$$$
>  <molecule>
Cc1ccc(F)cc1S(=O)(=O)N[C@@H]1CCN(Cc2ccc(OC(C)C)cc2)C1

>  <z-score>
0.239

$$$$
>  <molecule>
CC(C)OC(=O)CC(=O)CC(O)c1cccc(C#N)c1 (centres undefined)

>  <z-score>
-0.467

$$$$
>  <molecule>
O=C(CCCCCCC(=O)Nc1ccccc1)N/N=C/c1ccccc1

>  <z-score>
-0.156

$$$$
>  <molecule>
CN1C(=O)C2C(C1=O)C1C=C(c3ccc(CO)cc3)C2C(c2cccs2)N1Cc1cccc(OC(F)(F)F)c1 (centres undefined)

>  <z-score>
-0.384

$$$$
>  <molecule>
COc1ccc([Si](C)(C)[C@@H]2[C@@H](CCO)O[C@]3(C(=O)N(Cc4cccc(N5C(=O)c6cccc7cccc5c67)c4)c4ccccc43)[C@H]2C)cc1

>  <z-score>
-0.758

$$$$
>  <molecule>
CC(C)(C)OC(=O)CC[C@@]1(C(=O)O)N=C(c2ccc(OCCCO)cc2)O[C@@H]1c1ccccc1

>  <z-score>
-0.0016

$$$$
>  <molecule>
CCOC(=O)C[C@H]1[C@H](OC(=O)c2ccccc2-c2ccccc2)[C@@H](NC(=O)CC(C)C)c2cc(OCCCO)ccc2N1C(=O)c1ccc2ccccc2n1

>  <z-score>
0.222

$$$$
